# assayedSystem: T1, IGF1R-Fc (extracellular domain of human IGF1R aa 1-932 fused to hinge and constant regions of human IgG1) (human, UniProt P08069 31-932)
# T1 construct: range 1-932; made in house by transient transfection, purified on Protein A; also called IGF-IR-Fc; not shown: hinge and constant regions of human IgG1
quantityKind: pKd
Hey, just a heads up that pKd is the negative log base 10 of the concentration in molar.

binder="E1-GS10-I1, His-tagged, non-pegylated (designed binder, bispecific EGFR/IGF-IR tandem of two 10Fn3 domains) MGVSDVPRDLEVVAATPTSLLISWVAGAEDYQYYRITYGETGGNSPVQEFTVPHDLVTATISGLKPGVDYTITVYAVTDMMHVEYTEHPISINYRTEIDKGSGSGSGSGSGSGSGSGSGSVSDVPRDLEVVAATPTSLLISWSARLKVARYYRITYGETGGNSPVQEFTVPKNVYTATISGLKPGVDYTITVYAVTRFRDYQPISINYRTEIDKPSQHHHHHH" observedresult=9.10

Given E1-GS10-I1 pegylated, His-tagged (designed binder, 40 kDa branched PEG on the Cys of the C-terminal Cys tail, also called E1-GS10-I1 (with PEG)) MGVSDVPRDLEVVAATPTSLLISWVAGAEDYQYYRITYGETGGNSPVQEFTVPHDLVTATISGLKPGVDYTITVYAVTDMMHVEYTEHPISINYRTEIDKGSGSGSGSGSGSGSGSGSGSVSDVPRDLEVVAATPTSLLISWSARLKVARYYRITYGETGGNSPVQEFTVPKNVYTATISGLKPGVDYTITVYAVTRFRDYQPISINYRTEIDKPCQHHHHHH , state its recorded pKd.
8.62

Next entry: E3-GS10-I1 pegylated, His-tagged (designed binder, 40 kDa branched PEG on the Cys of the C-terminal Cys tail, also called E3-GS10-I1-Cys (with his)) MGVSDVPRDLEVVAATPTSLLISWLPGKLRYQYYRITYGETGGNSPVQEFTVPHDLRTATISGLKPGVDYTITVYAVTNMMHVEYSEYPISINYRTEIDKGSGSGSGSGSGSGSGSGSGSVSDVPRDLEVVAATPTSLLISWSARLKVARYYRITYGETGGNSPVQEFTVPKNVYTATISGLKPGVDYTITVYAVTRFRDYQPISINYRTEIDKPCQHHHHHH
9.13
